procedureText: Pharmacokinetic evaluation following a single oral and intravenous administration
Type: in vivo, CD1 mouse
conditionNotes: CD1, mouse, plasma, po, 5 mg/kg, Table 6, PO Dose: 5 mg/kg, Mouse 5; read-out: MRTInf—obs
recordedMetric: MRT inf
Just so you know, I need the unit written after the number.

// query MRT inf value for entry `CNCc1ccc(C[C@H](NC(C)=O)c2nnc(-c3cccc(OC(F)(F)F)c3)s2)cc1`
11.4 h

* * *

procedureText: Pharmacokinetic evaluation following a single oral and intravenous administration
Format: in vivo, CD1 mouse
conditionNotes: CD1, mouse, plasma, iv, 1 mg/kg, Table 3, IV Dose: 1 mg/kg, 4 h, Mouse 2; read-out: Concentration
recordedMetric: concentration at 4 h (ng/mL)
Quick note: give the figure in ng/mL, leave out the unit.

// query concentration at 4 h value for entry `CNCc1ccc(C[C@H](NC(C)=O)c2nnc(-c3cccc(OC(F)(F)F)c3)s2)cc1`
18.8

This collection of values is drawn from patent US11033535B2.
